# IC50 values compiled below
Measurement Target: Serine-protein kinase ATM (Homo sapiens)
Sequence (Q13315 whole entry): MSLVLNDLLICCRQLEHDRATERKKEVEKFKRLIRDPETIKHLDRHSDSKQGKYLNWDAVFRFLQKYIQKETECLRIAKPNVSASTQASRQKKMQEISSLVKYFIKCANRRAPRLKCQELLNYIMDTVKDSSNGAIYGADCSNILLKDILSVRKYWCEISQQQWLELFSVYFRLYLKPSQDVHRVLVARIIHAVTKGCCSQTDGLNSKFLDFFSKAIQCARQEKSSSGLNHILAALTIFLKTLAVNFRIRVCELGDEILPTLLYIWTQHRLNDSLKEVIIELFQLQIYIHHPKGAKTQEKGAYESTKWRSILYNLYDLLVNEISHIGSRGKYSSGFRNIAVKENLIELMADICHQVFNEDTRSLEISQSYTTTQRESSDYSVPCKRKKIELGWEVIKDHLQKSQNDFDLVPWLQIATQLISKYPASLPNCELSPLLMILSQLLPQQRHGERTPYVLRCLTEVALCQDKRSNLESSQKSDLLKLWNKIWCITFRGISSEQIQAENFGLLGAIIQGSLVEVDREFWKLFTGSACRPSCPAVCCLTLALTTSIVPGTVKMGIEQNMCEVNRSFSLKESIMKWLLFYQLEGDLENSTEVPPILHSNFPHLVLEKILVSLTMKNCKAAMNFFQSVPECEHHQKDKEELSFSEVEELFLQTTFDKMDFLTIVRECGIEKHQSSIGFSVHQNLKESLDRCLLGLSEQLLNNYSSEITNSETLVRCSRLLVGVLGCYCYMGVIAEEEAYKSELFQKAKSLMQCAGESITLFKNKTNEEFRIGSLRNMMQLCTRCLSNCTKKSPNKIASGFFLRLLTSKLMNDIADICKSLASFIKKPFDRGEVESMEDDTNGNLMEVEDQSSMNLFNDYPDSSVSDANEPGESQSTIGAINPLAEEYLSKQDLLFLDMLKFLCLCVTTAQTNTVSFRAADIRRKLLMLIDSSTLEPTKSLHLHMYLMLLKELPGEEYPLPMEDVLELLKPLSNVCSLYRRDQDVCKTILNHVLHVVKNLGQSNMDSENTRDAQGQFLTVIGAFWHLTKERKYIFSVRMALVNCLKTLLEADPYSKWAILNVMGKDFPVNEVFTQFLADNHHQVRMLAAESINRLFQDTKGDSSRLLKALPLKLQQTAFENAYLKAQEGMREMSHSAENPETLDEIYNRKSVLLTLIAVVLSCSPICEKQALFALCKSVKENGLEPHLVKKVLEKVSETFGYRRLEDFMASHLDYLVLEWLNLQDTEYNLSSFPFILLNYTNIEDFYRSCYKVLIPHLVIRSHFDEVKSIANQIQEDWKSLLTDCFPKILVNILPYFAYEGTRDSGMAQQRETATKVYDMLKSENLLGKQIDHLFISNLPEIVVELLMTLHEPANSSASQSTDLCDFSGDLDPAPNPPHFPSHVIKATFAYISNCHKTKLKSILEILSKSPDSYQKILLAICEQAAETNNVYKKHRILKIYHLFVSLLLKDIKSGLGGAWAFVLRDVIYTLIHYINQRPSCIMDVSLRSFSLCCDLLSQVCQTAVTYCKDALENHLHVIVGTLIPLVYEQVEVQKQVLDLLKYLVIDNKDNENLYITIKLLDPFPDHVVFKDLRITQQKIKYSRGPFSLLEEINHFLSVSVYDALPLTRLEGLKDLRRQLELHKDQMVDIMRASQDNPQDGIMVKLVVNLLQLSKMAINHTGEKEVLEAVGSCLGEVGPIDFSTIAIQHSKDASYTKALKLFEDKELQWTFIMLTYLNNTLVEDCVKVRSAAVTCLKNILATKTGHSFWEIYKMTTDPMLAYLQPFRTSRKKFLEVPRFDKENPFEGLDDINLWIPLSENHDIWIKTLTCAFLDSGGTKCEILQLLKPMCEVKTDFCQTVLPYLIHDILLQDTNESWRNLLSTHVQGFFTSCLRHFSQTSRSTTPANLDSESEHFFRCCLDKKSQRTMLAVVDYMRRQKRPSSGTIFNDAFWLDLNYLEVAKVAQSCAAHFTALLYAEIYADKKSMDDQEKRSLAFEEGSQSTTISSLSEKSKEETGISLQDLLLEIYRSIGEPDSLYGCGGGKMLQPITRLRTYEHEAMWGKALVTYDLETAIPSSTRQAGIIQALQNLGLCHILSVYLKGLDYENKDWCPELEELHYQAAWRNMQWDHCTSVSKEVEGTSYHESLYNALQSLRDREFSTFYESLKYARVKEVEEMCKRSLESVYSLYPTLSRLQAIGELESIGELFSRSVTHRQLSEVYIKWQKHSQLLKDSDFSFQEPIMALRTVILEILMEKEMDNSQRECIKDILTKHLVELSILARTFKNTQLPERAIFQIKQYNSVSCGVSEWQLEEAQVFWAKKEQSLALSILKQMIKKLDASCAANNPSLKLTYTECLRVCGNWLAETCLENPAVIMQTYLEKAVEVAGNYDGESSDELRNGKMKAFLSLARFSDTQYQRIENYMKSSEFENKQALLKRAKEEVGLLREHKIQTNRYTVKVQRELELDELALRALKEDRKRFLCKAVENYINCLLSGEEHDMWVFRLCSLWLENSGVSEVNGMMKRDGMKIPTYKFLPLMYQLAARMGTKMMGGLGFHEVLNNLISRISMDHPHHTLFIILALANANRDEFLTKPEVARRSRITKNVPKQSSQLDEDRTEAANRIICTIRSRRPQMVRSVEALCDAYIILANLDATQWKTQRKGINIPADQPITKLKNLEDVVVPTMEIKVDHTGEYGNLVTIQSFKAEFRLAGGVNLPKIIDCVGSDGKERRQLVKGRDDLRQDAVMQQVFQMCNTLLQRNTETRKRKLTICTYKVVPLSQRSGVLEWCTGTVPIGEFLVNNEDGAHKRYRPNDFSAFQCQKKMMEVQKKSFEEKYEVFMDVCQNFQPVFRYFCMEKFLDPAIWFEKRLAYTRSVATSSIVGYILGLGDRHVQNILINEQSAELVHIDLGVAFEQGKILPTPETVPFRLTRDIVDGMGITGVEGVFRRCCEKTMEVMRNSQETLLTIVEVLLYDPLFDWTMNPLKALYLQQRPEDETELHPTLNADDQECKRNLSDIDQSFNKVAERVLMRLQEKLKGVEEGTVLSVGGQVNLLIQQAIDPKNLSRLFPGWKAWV
Experiment Summary: Inhibition of ATM (unknown origin)

Smiles String: CC(C)n1c(=O)n(C)c2cnc3ccc(-c4ccc(OCCCN5CCCC5)nc4)cc3c21
Units: nM
IC50: 1.59
--
Smiles String: CC(C)n1c(=O)n(C)c2cnc3ccc(-c4ccc(OCCCN(C)C)nc4)cc3c21
Units: nM
IC50: 3.98

* * *

# Cmax values compiled below
Experiment Summary: Cmax in ICR mouse at 3 mg/kg, iv measured for 2 to 1440 mins
Assay type: ADME, organism-based
Parameters: time upper 1440 min, dose 3 mg/kg, time lower 2 min, route iv
Measurement Context: in vivo
Measured Parameter: Cmax

Smiles String: C=CCn1c(=O)c2cnc(Nc3ccc(N4C[C@H]5CN(C)C[C@H]5C4)cc3)nc2n1-c1ccc(C(C)(C)O)cn1
Measured Parameter: Cmax
Reading: 241 nM
//
Smiles String: C=CCn1c(=O)c2cnc(Nc3ccc(N4C[C@H]5CN(CC6CC6)C[C@H]5C4)cc3)nc2n1-c1ccc(C(C)(C)O)cn1
Measured Parameter: Cmax
Reading: 430 nM
